# protocolDetails: small-molecule microarray binders of probe aShh, primary screen, biochemical, biotinylated probe, 635/667 nm fluorescence (AID 1114);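 note: probe is biotin-labelled aShh protein from a stem cell growth factor screen; measures binding of labelled protein to compounds printed on the slide; score merges feature fluorescence at 667 nm with signal-to-noise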
# conditionInfo: higher = more signal
recordedMetric: composite z-score

Enquiry: What value of composite z-score has been recorded for this entry: `CO[C@@H]1COC(=O)CC=C[C@@H](C)[C@@H]2C=C[C@H](O)[C@@H](COC(=O)[C@H](C)NC(=O)CC=C[C@H]1C)O2`
Return: -0.0035

Next:
Enquiry: What value of composite z-score has been recorded for this entry: `CCc1cc2c(nc1CC)CCN(CCC(C)=NOC[C@@H](O)[C@H]1O[C@@H]3OC(C)(C)O[C@@H]3[C@H]1O)C2`
Return: -0.16

Enquiry: Input `C=CC[C@@H]1C=C[C@H](ON=C(C)CCN2CCc3nc(CC)c(CC)cc3C2)[C@@H](CO)O1`
Return: 0.0952

Enquiry: Input `CCCNC(=O)OC[C@H]1O[C@H](CCON=C[C@@H](OC)[C@H](C)C=CCC(=O)OC)C=C[C@@H]1Oc1ccc(OC)cc1`
Return: -0.01

Enquiry: Input `COCCCNC(=O)[C@@]1(C)c2ccccc2C(=O)N(Cc2ccc(OC(F)(F)F)cc2)[C@H]1c1ccc(CO)cc1`
Return: -0.2

Enquiry: Input CN(C)c1ccc(C(O)C2C=CC3C(=O)N(c4ccccc4)C(=O)C3N2Nc2ccccc2F)cc1 (stereo not given)
Return: 0.275

Enquiry: Input `[N-]=[N+]=NCc1ccccc1[C@@H]1OC(c2ccc(OCCCO)cc2)=N[C@]1(Cc1ccccc1)C(=O)N1CCOCC1`
Return: 0.26

Enquiry: Input `CC(CCC(=O)OC[C@H]1O[C@H](C#Cc2ccccc2)C=C[C@@H]1Oc1ccc(C)cc1)=NOC[C@@H](O)[C@H]1O[C@@H]2OC(C)(C)O[C@@H]2[C@H]1O`
Return: -0.439

====

# protocolDetails: anti-His antibody binders, primary screen, artefact control for SMM control protein annotation, biochemical, small-molecule microarray, 635 nm fluorescence (AID 1128);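 note: score merges feature fluorescence with signal-to-noise for each printed compound spot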
# conditionInfo: anti-His Alexa647 antibody binding, higher = more signal
recordedMetric: composite z-score

Solved cases below.
Enquiry: What value of composite z-score has been recorded for this entry: `CO[C@H]1COC(=O)[C@@H]2CCCN2C(=O)[C@@H](C)COC(=O)CC=C[C@@H]1C`
Return: 1.42

Enquiry: Input `CCOC(=O)C1=CC[C@H]2C(=O)N(CC)C(=O)[C@@H]12`
Return: 0.299

Enquiry: Input `COc1ccc(-c2nc3c(c4c2C[C@H](C)OC4)CN(CCC(C)C)CC3)cc1`
Return: 0.998

Enquiry: Input `CC(=O)OC[C@H]1O[C@H](C#CCCCc2ccccc2)C=C[C@@H]1OC(C)=O`
Return: 0.451

Enquiry: Input O[C@@H](Cc1ccccc1)[C@H]1C2C=CCCC(c3ccccc3)=C2CN1Cc1cccc(Cl)c1 (stereo not given in full)
Return: 0.607

Enquiry: Input `C[C@H](c1ccccc1)N1C(=O)[C@H]2[C@@H]3C(=CC[C@H]2C1=O)C(=O)[C@H]1O[C@H]1[C@H]3O`
Return: 1.36

Enquiry: Input COC(=O)[C@H](C)NC(=O)CCC1CC(OC(=O)NCc2cccc3ccccc23)CC2(CCCC(COC(=O)NCCc3ccc(Cl)cc3)O2)O1 (stereo not given in full)
Return: 0.591

Enquiry: Input `CCc1cccc(NC(=O)O[C@H]2[C@H](OC(=O)Nc3ccc4c(c3)OCO4)[C@@H](OC(=O)Nc3ccc4c(c3)OCO4)[C@@H](OC)O[C@@H]2CO)c1`
Return: 0.646

Let us move to another entry and its composite z-score.
Enquiry: What value of composite z-score has been recorded for this entry: Cc1cc2c(nc1C)CCCN2CC(O)CN1CCN(C)CC1 (stereo not given)
Return: 1.51
